Counter-ions that a name gives are not always drawn.
Please consider the recorded Ki for 5-HT1A receptors (Rattus norvegicus, UniProt P19327) in what follows.
Readout: Ki (nM)

>>> reported("C1=C(c2coc3ccccc23)N2CCCN=C2S1")
321
>>> reported("C1=C(c2coc3ccccc23)N2CCN=C2S1 [Example 3, monohydrobromide monohydrate]")
118
>>> reported("Clc1ccc2scc(C3=CSC4=NCCN34)c2c1 [Example 5, monohydrobromide]")
40.7
>>> reported("C1=C(c2csc3ccccc23)N2CCCN=C2S1")
340
>>> reported("C1=C(c2csc3ccccc23)N2CCN=C2S1 [Example 1, monohydrobromide dihydrate]")
81
>>> reported("COc1ccc2scc(C3=CSC4=NCCN34)c2c1 [Example 6, monohydrobromide]")
37.5
>>> reported("N#Cc1ccc2scc(C3=CSC4=NCCN34)c2c1 [Example 8, monohydrobromide]")
467

Attribution: patent US5869492A
